- Target System: Aldehyde dehydrogenase 1A1 (Homo sapiens)
- Test Method Notes: qHTS Assay for Inhibitors of Aldehyde Dehydrogenase 1 (ALDH1A1)
- Test Conditions: Purified ALDH1A1, NADH fluorescence, propionaldehyde substrate; series mostly up to 75.3 µM
Among all 220,000 compounds or so, about 16,000 (7.3%) were called active. Roughly 25% stayed inconclusive and do not appear here. Calls follow the shape of the dose curve; as a rule, active = well fitted inhibition curve with a large enough effect (not every such curve was filed as active); inconclusive = small, poorly fitted or top-dose-only effect, or another doubt; inactive = no such curve, though single readings can be large or run the other way. The sample as a whole holds a higher share of actives than the screen did.
Classes to choose from: T = active, F = inactive

Check the results log: what was the call for O=C(CSc1c2c(nc3ccc(Cl)cc13)CCCC2)NCc1ccco1 ? F

Check the results log: what was the call for CN(C)CCCn1c(SCCN2C(=O)c3ccccc3C2=O)nc2ccccc2c1=O ? T

Check the results log: what was the call for CC(CCn1cccn1)NC(=O)CCc1nnc(CCc2ccccc2)o1 (configuration not stated) ? F

Check the results log: what was the call for C=C(C)Cn1c(SCC(=O)NCc2ccco2)nc2sc3c(c2c1=O)CCC3 ? T

Check the results log: what was the call for Nc1ccc(SCCN2C(=O)c3ccccc3C2=O)cc1 ? F

Check the results log: what was the call for CCOc1ccc(OCc2cccc(C(=O)N(CC)CC)c2)cc1 ? F

Check the results log: what was the call for COc1cc(CCC(=O)OCC(=O)Nc2cccc(S(N)(=O)=O)c2)cc(OC)c1OC ? F
